# RUN_DESCRIPTION: Metabolic stability in mouse plasma assessed as compound remaining at 5 uM after 24 hrs by LC/MS/MS analysis
# Format: ADME, cell-free
# CONDITIONS_USED: read-out: Stability
This listing pairs molecules with measured remaining at 24 h, 5 µM.
PROPERTY_LABEL: remaining at 24 h, 5 µM (%)

In [3]: df
Out[3]:
        structure_smiles           property_label  test_result
0  Cc1nc(Cl)nc(Cl)c1CCCl  remaining at 24 h, 5 µM           22
1     ClCCc1cnc(Cl)nc1Cl  remaining at 24 h, 5 µM            0

====

compounds and their reported remaining at 1 h, 1 µM
# RUN_DESCRIPTION: Metabolic stability in rat liver microsomes assessed as compound remaining at 1 uM after 60 mins by LC/MS/MS analysis
# Assay type: ADME, Microsome
# CONDITIONS_USED: read-out: Stability
PROPERTY_LABEL: remaining at 1 h, 1 µM (%)

>>> df
        structure_smiles  test_result
0     ClCCc1cnc(Cl)nc1Cl           73
1  Cc1nc(Cl)nc(Cl)c1CCCl           74

====

# RUN_DESCRIPTION: Half life in mouse plasma at 5 uM
# Type: ADME
PROPERTY_LABEL: half-life at 5 µM (h)

>>> df
        structure_smiles  test_result
0  Cc1nc(Cl)nc(Cl)c1CCCl         7.97
1     ClCCc1cnc(Cl)nc1Cl         1.52

====

# System: MCF7
# RUN_DESCRIPTION: Cytotoxicity against human MCF7 cells up to 100 uM after 72 hrs by MTT assay
# Type: functional, cell-based
Activity calls are given as the source filed them. The rule behind the calls is not given here.
Outcome codes: YES (active), NO (inactive)

>>> print(df.to_string())
                     structure_smiles  discrete_label
 0                COc1ncc(CCO)c(OC)n1              NO
 1    COCn1cc(CCOC(C)=O)c(=O)[nH]c1=O              NO
 2  COCn1cc(CCOC(C)=O)c(=O)n(COC)c1=O              NO
 3            CC(=O)OCCc1cnc(Cl)nc1Cl             YES
 4                  OCCc1cnc(Cl)nc1Cl              NO
 5          COCn1cc(CCF)c(=O)[nH]c1=O              NO
 6      CC(=O)OCCc1c[nH]c(=O)[nH]c1=O              NO
 7          COCn1c(=O)[nH]cc(CCO)c1=O              NO
 8                  COc1nc(Cl)ncc1CCO              NO
 9                  COc1ncc2c(n1)OCC2              NO
10          COCn1cc(CCO)c(=O)[nH]c1=O              NO
11                  COc1nc(Cl)ncc1CCF              NO
12          COCOCCc1cn(COC)c(=O)nc1OC              NO
13    COCn1c(=O)[nH]cc(CCOC(C)=O)c1=O              NO
14               COCOCCc1cnc(OC)nc1OC             YES
